# testedOn: Twin-Strep-tagged LY6A, C57BL/6J variant (GPI-anchor truncated, soluble) (mouse (C57BL/6J)) (UniProt P05533)
# Sequence (P05533 27-111, change not shown): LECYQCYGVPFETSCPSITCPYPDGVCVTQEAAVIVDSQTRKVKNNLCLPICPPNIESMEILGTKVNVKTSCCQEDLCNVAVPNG
# experimentalProtocol: ELISA, AAV particles on plate-bound Twin-Strep-tagged LY6A; apparent Kd from a 1:1 fit
parameterMeasured: pKd
Give bare numbers, as −log10 of the molar value.

Quick one: pKd for AAV-PHP.B capsid (AAV9 variant with the TLAVPFK insert) ? 10.15
